Data origin: the supplement of paper PMC11417369

test system: PfAP2-HC AP2 domain (GST-tagged); assay: gcPBM binding intensity (ln(normalized median fluorescence intensity)); higher = stronger DNA binding
In all, about 25,000 sequences were measured (“ln(normalized median fluorescence intensity)”: median about 9.7, highest 2% from about 11 on). This is one part of a sample in which the highest values are shown more often than they occur.
measured parameter: gcPBM binding intensity (ln)
Respond using a number only.

Quick one: gcPBM binding intensity (ln) for ATGTACTATGATAATGCATGCAATAATACATTTTTA [TGCATGCA_site318] ? 9.6

Same for AAAATACACCAACACACACACATATATATATATATT [CACACA_site4149] 10.3

Please do the same for TATAAGAGAATATATACACACAAAAATAAATACAGT [CACACA_site5000] as well. 10.9

Next sequence: CATATAAAAATATGCACACACAGGAATACAAACATA [CACACA_site684] 10.3

Now this one: CATATATACCTATATACACACATATAGATTTATATA [CACACA_site6451] 9.78

Please answer likewise for GATATGGAATATATGTGTACATATATATATATTATA [XGTACX_site1724] 9.77

How about TATTAAACTGGACACACACACACACCCATATATAAA [CACACA_site4579] ? 11.2

Another sequence: ATTATGCACCAACACACACACACACCCCTAAAAAAT [CACACA_site2568] 10.8

Would you kindly repeat that for ATTCCACTGTTTTAGTGTACTGGTCGTTTTTTTTTT [XGTACX_site1738] ? 9.89

Now the sequence AAAAAAAAAAAACATACACACAAATATATACATACA [CACACA_site4011] 10.2

For ATATATATGAATACATGTACGTATTTGTCTATGTAT [XGTACX_site8306] then? 9.81

Same lookup for TACACGCAGAAACACACACACACACCCATATATATA [CACACA_site637] , please. 11.4

One more sequence: AAAATACACAACATATATATATATATATATATATAT [XGTACX_negctrl_site21] 9.62

Consider next the sequence AGAGATATAAGAAAAGCACACACACCCAAAAAAAAA [CACACA_site8917] in the same way. 10.5

What do we get for ATAATAAGCAGACACACACACACAAAAAAAAAAAAA [CACACA_site6477] ? 11

Repeat with GACACAAAAAAATAATAATAATAATAATAATAAATA [XGTACX_negctrl_site145] 9.75

Entry ATTATGCACCAACACACACACACACTCCTAAAAAAT [CACACA_site8822] please 11

Subsequent entry: CATACATAGATATATACACACATACCTATAAATACA [CACACA_site6513] 10.2

What about this sequence? AATACACGCAAACACACACACACACCCACATATATA [CACACA_site638] 10.8

Similarly, TATATATAGAAACACACACACATATATATATATATA [CACACA_site773] ? 10.5

Then this sequence: GATACCTATAGACACACACACATACCTATATACATA [CACACA_site7586] 10.9

Also TATATATATATATATACACACATACAGATATATATT [CACACA_site4629] ? 9.88

Can you handle TATACCTATAGACACACACACATAAATAGATATATA [CACACA_site6748] next? 11.1

Continue with TGCACAAAATTATGCACACACCTAAAATTAATTTTT [CACACA_site5596] 9.8

Try CACAGATAAATTAACACACACACACCGATATATATA [CACACA_site6049] next. 10.5

One more sequence: TTTATTAAACTTGACACACACACACCCACATATATA [CACACA_site760] 10.2

Please give the result for TATACCTATAGACACACACACATATAGATTTATATA [CACACA_site7124] too. 11.1

Next up: AAAAAAAAAAAACACACACACACATACAAAATATAT [CACACA_site1448] 11.3

Quick one: AATAGATATATAAATACACACAAACATACCTATATA [CACACA_site7823] 10.6

Can you handle ATATGTTTTGTTTACGTGCACTGCTTTGTTTATATA [GTGCAC_site9622] next? 10.5

Now try AACATATAAAAATATGCACACACAGGAATACAAACA [CACACA_site8127] . 11.2

Another sequence to look at: AAAATACAGAAACACACACACACACCCATATATATA [CACACA_site3559] 10.7

Okay, and CACAGATAAATTAACACACACACACCCATATATATA [CACACA_site3960] ? 10.5

Queued: ATATAAGAAAAGCACACACACACAAAAAAAAAAAAA [CACACA_site2827] 11.1

// repeat for ATCAAATAATAGCAAACACACAAAAAATAAAAAAAA [CACACA_site4146] and report 9.93

What would you report for TATATATAGAAACACACACACACACCCAAGCGTAGC [CACACA_site63] ? 10.6

Moving on to the next sequence: CAATTTGGTGTACAGGTGCACATGCCTCACGATAAA [GTGCAC_site9650] 9.61

Consider next the sequence AATAAGCATAGACACACACACAAAAAAAAAAAAAAA [CACACA_site6476] in the same way. 10.1

* * *

Please respond with reported gcPBM binding intensity (ln) for every item in the list.
test system: PfAP2-HC AP2 domain (GST-tagged); assay: gcPBM binding intensity (ln(normalized median fluorescence intensity)); higher = stronger DNA binding
In all, about 25,000 sequences were measured (“ln(normalized median fluorescence intensity)”: median about 9.7, highest 2% from about 11 on). Only a selection was taken, and the highest values are over-represented in it overall.
Answer as a number with no unit attached.

API: value(readout= gcPBM binding intensity (ln), system= PfAP2-HC AP2 domain (GST-tagged), query= AATATGTGAATATAATCACACACAATACGGAAACAC [CACACA_site8875] ) 10.7

Try this sequence next: ATTACATACACGCGCACACACAAAAAAAAAAAAAAA [CACACA_site1334] 9.98

Proceed to TGATTATAGACACGCGCACACACAACAAAAAAAAAA [CACACA_site9179] 10.1

Let us now turn to ATAGACAGCGCACAAACACACAAACACGCACGCACA [CACACA_site6349] 10.2

Let us now turn to TATGTGAATATAATCACACACAATACGGAAAGAGAC [CACACA_site7311] 11.2

* * *

test system: PfAP2-HC AP2 domain (GST-tagged); assay: gcPBM binding intensity (ln(normalized median fluorescence intensity)); higher = stronger DNA binding
Over roughly 25,000 sequences, “ln(normalized median fluorescence intensity)” has its median near 9.7; the highest 2% begin near 11. This excerpt belongs to a sample that is enriched for the highest values.
Please provide measured gcPBM binding intensity (ln) for the entries that follow.
# print the numeric value only

Form field: reported gcPBM binding intensity (ln) of ACTGTACTATAAAATACACACATATAAATATAAATA [CACACA_site3009] 9.99

What do you have for AAAATATATTAAGGCACACACATACAGATATATATA [CACACA_site5951] ? 11.1

What about TATTTTGTCATAGAACGTACTTATAAATATTTTTTT [XGTACX_site8424] ? 9.5

Moving on to the next sequence: CTAAAATACAGACACACACACACATATATATATATA [CACACA_site4150] 11

Likewise for TATATATCAAGACACACACACATATATTTATTTATA [CACACA_site7733] ? 11.2

Param item: AAAATACACAGACACACACACATATAAATAAATATT [CACACA_site7871] 10.8

What about this sequence? TATACATAGATATATACACACATATATTTATATACA [CACACA_site6328] 9.92

Item: ATAAACATATCAATATGTACATATTTTTGTTTGTAT [XGTACX_site7018] 9.77

// query: TAAATACAGACATATACACACATATATATATATATA [CACACA_site4382] 9.75

* * *

Exercise: state measured gcPBM binding intensity (ln) for each of the sequences provided.
system: PfAP2-HC AP2 domain (GST-tagged); test: gcPBM binding intensity (ln(normalized median fluorescence intensity)); higher = stronger DNA binding
The full ranking holds about 25,000 sequences; the median of “ln(normalized median fluorescence intensity)” is about 9.7, and the highest 2% start at about 11. This excerpt belongs to a sample that is enriched for the highest values.
Number, no unit, nothing else.

Name the reported gcPBM binding intensity (ln) value associated with the sequence `AAATACTTATTCGTGGTGCAACAATTTTAAAAATTA` 9.49

Also TACATATATATATACACACATACATATATATACGCA [CACACA_site792] , if possible. 9.85

Follow-up item: GATAAATTAAGACACACACACATATATTTATTTATA [CACACA_site7789] 11.2

Try this sequence too: TAAATCCGCAGGCACACACACATATTAATAAAAAAA [CACACA_site3991] 10.8

Please give the result for AATGATCAGATATACACACACACAAAAAAAAAAAAA [CACACA_site7806] too. 10.4

Also TAAAATATAAGACACACACACATATATTTATATATC [CACACA_site6248] ? 10.5

Item: AAAAAAAACGAACACACACACATTCAATATAAAACA [CACACA_site6170] 10.5

Now consider GAATAATATGGACATACACACATATACATACAGATA [CACACA_site5200] . 10.5

Now consider AAATTAATAAGTCACACACACATATATAATATATAT [CACACA_site799] . 10.4

# iterate: TATTTATTTATTTATGCATGCATGAATAATTTTTAC [TGCATGCA_site31] 9.62

Same again, this time with AATAAACATAAATACACACACAAAAAAAAAAACATA [CACACA_site4396] 10.3

Same for AAAAAAAAAAAACACACACACACATTCAATATAAAA [CACACA_site40] 10.4

Can you handle ATTATTTACCACAACACACAAATATTTACCAATCAT [CACACA_site5472] next? 10.5

Subsequent entry: TTTTAATTAAGACACACACACACATATAAATATGTA [CACACA_site7144] 11

Let us now turn to CATATACGCAAACACACACACATATATATATATATA [CACACA_site501] 11.6

Entry to check: TATACGCATATATAAACACACAAAAAAAAAAAAAAA [CACACA_site2026] 9.43

Now try AAAAAAAAAAAAAACACACACACAAATACAAATGGT [CACACA_site1721] . 10.5

Also AAAAAAATTAGACACACACACACATATAAATATGTA [CACACA_site6618] ? 10.8

Check ATATTAAAGATATATACACACATATTTATAAATATA [CACACA_site7127] too. 9.78

Then this sequence: TTAAAATATACATAAACACACACAAAACGTTTAAGA [CACACA_site8267] 10.4
